target: CD73 (Homo sapiens (Human)); format: biochemical; conditions: 1 mM NaH2PO4 in enzyme buffer, CD73 0.3 nM, AMP 15 uM
Sequence (P21589 27-574): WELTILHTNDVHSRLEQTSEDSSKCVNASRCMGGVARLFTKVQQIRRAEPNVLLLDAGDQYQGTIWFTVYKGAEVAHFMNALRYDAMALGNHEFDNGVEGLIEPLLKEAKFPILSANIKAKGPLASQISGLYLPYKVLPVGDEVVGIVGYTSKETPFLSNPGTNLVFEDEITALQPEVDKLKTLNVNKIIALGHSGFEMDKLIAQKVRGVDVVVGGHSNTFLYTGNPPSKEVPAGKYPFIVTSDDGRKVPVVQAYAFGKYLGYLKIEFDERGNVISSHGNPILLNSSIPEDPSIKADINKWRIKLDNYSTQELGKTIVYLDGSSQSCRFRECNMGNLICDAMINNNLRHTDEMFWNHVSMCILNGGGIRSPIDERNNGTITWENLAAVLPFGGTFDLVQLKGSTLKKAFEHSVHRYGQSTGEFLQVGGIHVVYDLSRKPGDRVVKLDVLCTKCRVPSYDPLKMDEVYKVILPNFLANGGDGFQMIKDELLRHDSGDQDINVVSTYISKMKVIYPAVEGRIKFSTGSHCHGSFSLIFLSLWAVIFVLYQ
QUANTITY_NAME: IC50 (nM)

{"COMPOUND": "O=c1[nH]cc(-c2cc([C@H]3C[C@@H]3c3ccn(C(F)F)n3)c3nccn3n2)c(=O)[nH]1 (racemic) [Example 369]", "TEST_TARGET": "CD73 (Homo sapiens (Human))", "IC50 [nM]": 21.5}
{"COMPOUND": "CC(F)(F)COc1cc(-c2c[nH]c(=O)[nH]c2=O)nn2ccnc12 [Example 677]", "TEST_TARGET": "CD73 (Homo sapiens (Human))", "IC50 [nM]": 12.2}
{"COMPOUND": "CC1CN(c2cc(-c3c[nH]c(=O)[nH]c3=O)nn3ccnc23)CC1(F)F (stereo not shown) [Example 479]", "TEST_TARGET": "CD73 (Homo sapiens (Human))", "IC50 [nM]": 2.6}
{"COMPOUND": "O=c1[nH]cc(-c2cc([C@H]3C[C@@H]3c3ccc(OC(F)(F)F)cn3)c3nccn3n2)c(=O)[nH]1 [Example 373]", "TEST_TARGET": "CD73 (Homo sapiens (Human))", "IC50 [nM]": 2.56}

[A] O=c1[nH]cc(-c2cc(N3CCC(F)(c4ccccc4)C3)c3nccn3n2)c(=O)[nH]1 (stereo not shown) [Example 253]
[B] N#Cc1cc([C@H]2C[C@@H]2c2cc(-c3c[nH]c(=O)[nH]c3=O)nn3ccnc23)ccc1Cl [Example 553]
[C] O=c1[nH]cc(-c2cc([C@H]3C[C@@H]3c3ccc4c(c3)OC(F)(F)O4)c3ncc(F)n3n2)c(=O)[nH]1 (racemic) [Example 278]
Arrange the 3 entries by IC50 so the values rise. Lab note: final answer is the ordered label list.
B, C, A

Source listed as patent US20240043427A1.
